All values here come from paper PMC6204718.

System tested: human glucocorticoid receptor (hGR) (Homo sapiens, UniProt P04150)
Construct: expressed in transfected cells; host or cells: HEK293T
Sequence (P04150 524-758 limits assumed): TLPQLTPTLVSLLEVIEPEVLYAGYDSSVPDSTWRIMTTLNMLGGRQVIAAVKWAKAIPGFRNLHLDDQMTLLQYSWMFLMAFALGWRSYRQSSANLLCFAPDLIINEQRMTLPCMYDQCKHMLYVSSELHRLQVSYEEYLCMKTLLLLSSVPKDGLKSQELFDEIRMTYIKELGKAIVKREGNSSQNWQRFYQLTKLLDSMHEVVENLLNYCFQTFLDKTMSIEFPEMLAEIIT
Protocol description: hGR reporter gene assay (GR-GAL4 chimeric receptor, antagonist mode)
Format: cell-based
Measurement setup: target GR; GR-GAL4 reporter gene assay in HEK293T cells; read-out: IC50 (half-maximal inhibitory concentration)
Hi! Just check whether IC50 is below 20 µM. Below gives 1 (yes), equal or above gives 0 (no).

- C#CC1(O)CCC2C3CCc4cc(Oc5ccc([N+](=O)[O-])cc5)ccc4C3CCC21C (centres unmarked): 1 (yes)
- CC(=O)C1(O)CCC2C3CCC4(C)CC(=O)CCC4(C)C3C(=O)CC21C (centres unmarked): 0 (no)
- O=S(=O)(Nc1cccc(-c2nc3ccccc3s2)c1)c1ccc(F)c(Cl)c1: 1 (yes)
- Cc1nnc(SCC(=O)Nc2ccc(S(N)(=O)=O)cc2)c2nn(-c3ccccc3)c(C)c12: 0 (no)
- CC(=O)OCC(=O)C1(OC(C)=O)CCC2C3CCC4=CC(=O)C=CC4(C)C3C(=O)CC21C (centres unmarked): 1 (yes)
